assay: in vivo; conditions: male, Beagle, dog, plasma, po, 10 mg/kg
endpointLabel: Cmax (ng/mL)
Reply with just the number (in ng/mL).

The recorded Cmax for entry CS(=O)(=O)Nc1ccc([N+](=O)[O-])cc1Oc1ccccc1 [Preparation A, 4-nitro-2-phenoxy-methansulfonanilide] equals 12100
